target: 2-acylglycerol O-acyltransferase 2 (Homo sapiens, UniProt Q3SYC2)
Sequence (Q3SYC2 whole entry): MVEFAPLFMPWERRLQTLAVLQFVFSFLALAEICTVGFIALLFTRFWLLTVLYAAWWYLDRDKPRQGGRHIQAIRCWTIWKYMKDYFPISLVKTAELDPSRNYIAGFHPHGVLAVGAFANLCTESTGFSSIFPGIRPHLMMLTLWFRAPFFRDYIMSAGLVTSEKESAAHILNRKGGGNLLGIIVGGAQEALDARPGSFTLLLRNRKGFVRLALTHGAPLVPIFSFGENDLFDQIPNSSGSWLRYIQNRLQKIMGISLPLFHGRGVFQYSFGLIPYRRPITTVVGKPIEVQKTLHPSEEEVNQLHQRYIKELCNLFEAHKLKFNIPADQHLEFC
test details: Inhibition of human MoGAT-2 expressed in human Caco2 cells assessed as inhibition of 2-O-Hexadecylglycerol […] pretreated for 30 mins by LC-MS analysis
endpoint: IC50

Query: // lookup IC50 for C[C@@H](NS(C)(=O)=O)c1ccc(CNC[C@@H]2CO[C@@H](c3ccccc3)CO2)cc1
Response: 294 nM
